target: KEAP1 C151 (Homo sapiens, UniProt Q14145); construct: treating 500 μg of cell lysate generated from MDA-MB-468 breast cancer cells with DMSO or compound; endogenous in cells; experiment: Nrf2 TMT measurement: in vitro TE50 for KEAP1 C151 (IA-DTB competition, targeted TMT mass spectrometry) in MDA-MB-468 cell lysate; details: in vitro target engagement of KEAP1 C151, targeted TMT, read-out: KEAP1_C151 TE50
Sequence (Q14145 whole entry): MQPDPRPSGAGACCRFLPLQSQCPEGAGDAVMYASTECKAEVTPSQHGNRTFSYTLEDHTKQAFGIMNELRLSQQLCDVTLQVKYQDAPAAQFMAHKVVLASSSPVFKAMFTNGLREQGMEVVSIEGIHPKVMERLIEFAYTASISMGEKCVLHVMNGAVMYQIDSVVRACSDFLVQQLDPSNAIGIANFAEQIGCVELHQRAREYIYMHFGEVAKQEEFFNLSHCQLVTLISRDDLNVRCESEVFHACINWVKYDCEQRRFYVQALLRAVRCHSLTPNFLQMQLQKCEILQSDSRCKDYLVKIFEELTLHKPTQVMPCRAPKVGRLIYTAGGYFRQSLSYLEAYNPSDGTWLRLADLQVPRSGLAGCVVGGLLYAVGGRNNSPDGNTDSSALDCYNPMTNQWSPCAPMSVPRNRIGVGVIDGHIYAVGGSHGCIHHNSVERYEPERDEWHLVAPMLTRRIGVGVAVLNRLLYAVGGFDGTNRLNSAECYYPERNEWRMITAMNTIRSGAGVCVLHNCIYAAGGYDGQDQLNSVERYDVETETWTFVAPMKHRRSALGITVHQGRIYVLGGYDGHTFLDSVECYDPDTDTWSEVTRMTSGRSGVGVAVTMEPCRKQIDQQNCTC
Assay Readout: IC50 (µM)

Worked cases, IC50 given:
Compound: C=CC(=O)N1[C@H](C)COC[C@H]1c1cc(Cl)cc(-c2ccnc(N3CCCC3=O)c2)c1 (single isomer, unassigned)
IC50 / µM: 0.01
//
Compound: C=CC(=O)N1CC(F)(F)CCC1c1cc(Cl)cc(-c2ncc(N)cn2)c1 (single isomer, unassigned)
IC50 / µM: 0.034

P. C=CC(=O)N1CC2(CC2)OCC1(C)c1cc(Cl)cc(-c2cc(N)ncn2)c1 (single isomer, unassigned)
Q. C=CC(=O)N1CCOC[C@H]1c1cc(Cl)cc(-c2ncc(OC)c(N)n2)c1
Query: When the recorded IC50 values are compared, which is smaller: that of P or that of Q ? Field: selected label. Fill in the label of the entry you choose.
Response: Q
(Q: 0.019 µM, P: 2.89 µM)
